Each entry below lists one item and its recorded IC50 value.
System: SMO-M2 in NIH3T3 (GLI-BS reporter)
Assay: GLI-BS reporter assay, NIH3T3 cells with SMO-M2 DNA
Assay type: cell-based
Conditions: Mus musculus
Write it as a number; the unit nM goes unstated.

O=C(CCCCCCC(=O)Nc1ccc(Cl)c(C(=O)Nc2ccc(NC(=O)c3cc(Cl)ccc3Cl)cc2)c1)NO = 80

The compound "O=C(CCCCCCC(=O)Nc1ccc(Cl)c(C(=O)Nc2cccc(NC(=O)c3cc(Cl)ccc3Cl)c2)c1)NO" , tested on SMO-M2 in NIH3T3 (GLI-BS reporter), showed IC50 of 850

---

Molecular target: HDAC3/NCOR2 (Homo sapiens, UniProt O15379)
Sequence (O15379 whole entry): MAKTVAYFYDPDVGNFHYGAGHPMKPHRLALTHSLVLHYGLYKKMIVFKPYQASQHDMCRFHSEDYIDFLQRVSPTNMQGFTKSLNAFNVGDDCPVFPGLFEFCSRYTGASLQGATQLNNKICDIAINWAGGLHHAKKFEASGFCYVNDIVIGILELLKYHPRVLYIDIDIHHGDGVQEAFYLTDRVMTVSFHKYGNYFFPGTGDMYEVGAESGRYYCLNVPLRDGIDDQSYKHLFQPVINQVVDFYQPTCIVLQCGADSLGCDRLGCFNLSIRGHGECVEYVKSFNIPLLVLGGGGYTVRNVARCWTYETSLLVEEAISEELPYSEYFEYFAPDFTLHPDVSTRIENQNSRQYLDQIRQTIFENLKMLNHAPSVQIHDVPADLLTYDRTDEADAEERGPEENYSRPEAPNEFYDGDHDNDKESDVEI
Sequence (Q9Y618 395-489 partner limits assumed): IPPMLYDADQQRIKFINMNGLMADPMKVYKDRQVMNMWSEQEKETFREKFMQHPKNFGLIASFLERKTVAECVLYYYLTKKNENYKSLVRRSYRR
Test: In vitro HDAC profiling (deacetylation assay), HDAC3
Conditions: in vitro deacetylation assay, duplicates
endpoint-label: IC50 (nM)
Write it as a number; the unit nM goes unstated.

Form field IC50, entry "O=C(CCCCCCC(=O)Nc1ccc(Cl)c(C(=O)Nc2ccc(NC(=O)c3cc(Cl)ccc3Cl)cc2)c1)NO" : 188

---

Target: HDAC2 (Homo sapiens, UniProt Q92769)
Sequence (Q92769 whole entry): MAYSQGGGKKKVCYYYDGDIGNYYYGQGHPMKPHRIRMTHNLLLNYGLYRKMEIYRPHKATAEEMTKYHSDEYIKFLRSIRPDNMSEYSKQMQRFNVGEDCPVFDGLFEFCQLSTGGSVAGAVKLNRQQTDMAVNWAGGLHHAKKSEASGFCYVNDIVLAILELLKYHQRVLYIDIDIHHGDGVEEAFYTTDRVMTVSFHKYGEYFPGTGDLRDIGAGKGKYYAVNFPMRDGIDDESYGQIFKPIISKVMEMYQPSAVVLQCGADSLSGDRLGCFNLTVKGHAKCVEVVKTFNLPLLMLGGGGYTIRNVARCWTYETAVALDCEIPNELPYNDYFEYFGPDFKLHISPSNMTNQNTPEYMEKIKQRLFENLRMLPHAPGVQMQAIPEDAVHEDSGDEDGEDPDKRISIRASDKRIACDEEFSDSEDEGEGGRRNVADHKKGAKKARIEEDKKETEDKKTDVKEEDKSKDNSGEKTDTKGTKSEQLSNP
endpoint-label: IC50

The compound O=C(CCCCCCC(=O)Nc1ccc(Cl)c(C(=O)Nc2ccc(NC(=O)c3cc(Cl)ccc3Cl)cc2)c1)NO [IHR-SAHA] , tested on HDAC2 (Homo sapiens, UniProt Q92769), showed IC50 of 746 nM

---

Target: HDAC5 (Homo sapiens, UniProt Q9UQL6)
Sequence (Q9UQL6 whole entry): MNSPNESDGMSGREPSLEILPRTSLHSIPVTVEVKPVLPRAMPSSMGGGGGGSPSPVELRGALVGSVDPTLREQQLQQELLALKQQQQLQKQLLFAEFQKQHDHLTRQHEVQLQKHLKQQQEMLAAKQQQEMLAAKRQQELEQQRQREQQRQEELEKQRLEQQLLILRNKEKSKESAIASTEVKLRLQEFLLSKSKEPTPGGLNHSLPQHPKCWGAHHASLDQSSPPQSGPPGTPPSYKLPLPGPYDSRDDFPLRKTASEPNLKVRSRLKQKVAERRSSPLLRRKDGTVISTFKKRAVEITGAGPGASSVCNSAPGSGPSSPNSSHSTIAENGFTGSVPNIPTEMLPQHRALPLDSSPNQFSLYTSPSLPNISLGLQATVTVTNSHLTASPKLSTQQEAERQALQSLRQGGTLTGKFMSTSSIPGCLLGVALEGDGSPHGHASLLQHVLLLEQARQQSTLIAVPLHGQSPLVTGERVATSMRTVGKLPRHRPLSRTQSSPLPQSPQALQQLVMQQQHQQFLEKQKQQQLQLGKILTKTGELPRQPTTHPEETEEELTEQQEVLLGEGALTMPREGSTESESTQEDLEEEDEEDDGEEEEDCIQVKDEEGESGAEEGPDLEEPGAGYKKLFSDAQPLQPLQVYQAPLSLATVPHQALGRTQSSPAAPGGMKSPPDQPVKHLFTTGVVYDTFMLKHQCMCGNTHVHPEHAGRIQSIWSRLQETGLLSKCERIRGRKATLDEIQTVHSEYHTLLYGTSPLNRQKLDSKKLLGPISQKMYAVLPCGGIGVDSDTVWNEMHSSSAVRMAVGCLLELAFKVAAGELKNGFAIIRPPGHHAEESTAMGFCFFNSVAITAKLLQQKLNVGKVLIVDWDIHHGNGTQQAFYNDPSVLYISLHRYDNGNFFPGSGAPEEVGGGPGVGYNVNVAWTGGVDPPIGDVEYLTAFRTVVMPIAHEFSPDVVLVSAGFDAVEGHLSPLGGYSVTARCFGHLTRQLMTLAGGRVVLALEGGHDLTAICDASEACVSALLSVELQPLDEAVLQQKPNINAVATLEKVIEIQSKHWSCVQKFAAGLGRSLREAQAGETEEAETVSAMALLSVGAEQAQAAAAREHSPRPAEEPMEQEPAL
pIC50: −log10 of the molar value.
endpoint-label: pIC50

The compound "O=C(CCCCCCC(=O)Nc1ccc(Cl)c(C(=O)Nc2ccc(NC(=O)c3cc(Cl)ccc3Cl)cc2)c1)NO" , tested on HDAC5 (Homo sapiens, UniProt Q9UQL6), showed pIC50 of < 5.00

---

System: GLI-BS reporter in Ptch1-/- MEFs
Test: GLI-BS reporter assay in Ptch1-/- MEFs
Assay type: cell-based
endpoint-label: pIC50
By convention, pIC50 is the negative base-10 log of a molar concentration.

Here's what some known entries look like.
O=C(CCCCCCC(=O)Nc1ccc(Cl)c(C(=O)Nc2cccc(NC(=O)c3cc(Cl)ccc3Cl)c2)c1)NO = 5.60
O=C(CCCCCCC(=O)Nc1ccc(Cl)c(C(=O)Nc2ccc(NC(=O)c3cc(Cl)ccc3Cl)cc2)c1)NO = 7.82

Let's switch to this compound now.
Form field pIC50, entry O=C(Nc1ccc(NC(=O)c2cc(Cl)ccc2Cl)cc1)c1cc(Cl)ccc1Cl [IHR-1, reference compound] : 7.60

---

Biological target: HDAC7 (Homo sapiens)
Sequence (Q8WUI4 1-952): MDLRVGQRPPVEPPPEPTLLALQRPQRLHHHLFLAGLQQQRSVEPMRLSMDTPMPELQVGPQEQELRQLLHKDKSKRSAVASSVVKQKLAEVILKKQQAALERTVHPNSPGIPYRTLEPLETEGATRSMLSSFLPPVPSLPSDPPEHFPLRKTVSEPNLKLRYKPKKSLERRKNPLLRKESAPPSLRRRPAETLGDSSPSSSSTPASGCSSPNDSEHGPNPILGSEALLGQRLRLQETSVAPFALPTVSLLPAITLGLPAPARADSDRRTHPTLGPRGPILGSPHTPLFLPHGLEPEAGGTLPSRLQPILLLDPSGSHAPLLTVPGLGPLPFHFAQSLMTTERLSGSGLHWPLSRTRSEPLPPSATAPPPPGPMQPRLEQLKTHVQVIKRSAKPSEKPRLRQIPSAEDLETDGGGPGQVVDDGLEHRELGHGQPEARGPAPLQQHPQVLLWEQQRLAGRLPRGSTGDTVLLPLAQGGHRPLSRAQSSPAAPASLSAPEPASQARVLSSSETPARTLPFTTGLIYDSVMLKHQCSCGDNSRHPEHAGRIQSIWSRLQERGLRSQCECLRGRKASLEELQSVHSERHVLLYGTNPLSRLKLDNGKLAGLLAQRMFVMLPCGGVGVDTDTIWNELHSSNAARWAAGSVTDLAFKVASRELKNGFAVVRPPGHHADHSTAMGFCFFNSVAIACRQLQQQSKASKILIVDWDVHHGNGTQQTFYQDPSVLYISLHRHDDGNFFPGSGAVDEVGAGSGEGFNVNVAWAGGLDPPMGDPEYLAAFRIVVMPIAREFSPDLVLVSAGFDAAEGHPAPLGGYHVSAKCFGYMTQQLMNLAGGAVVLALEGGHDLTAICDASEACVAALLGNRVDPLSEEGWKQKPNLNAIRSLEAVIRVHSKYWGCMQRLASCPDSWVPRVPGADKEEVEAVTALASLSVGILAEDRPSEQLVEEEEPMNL
pIC50: −log10 of the molar value.
endpoint-label: pIC50

Form field pIC50, entry "O=C(CCCCCCC(=O)Nc1ccc(Cl)c(C(=O)Nc2ccc(NC(=O)c3cc(Cl)ccc3Cl)cc2)c1)NO" : < 5.00
